Test system: SK-CO-1 cells
Assay: SK-CO-1 CTG proliferation assay (120 h) (CRC, G12V)
Format: cell-based
Settings: Homo sapiens
Experimental: SK-CO-1 cells (ATCC HTB-39) are dispensed into 384-well plates, flat and clear bottom (Greiner, PNr. 781091) at a density of 500 cells per well in 60 μL EMEM (Sigma M5650)+10% Fetal Calf Serum (HyClone, PNr.: SH30084.03) and incubated at 37° C. in a CO2 incubator overnight. […] Plates are incubated for 120 h, and cell viability is measured using CellTiter-Glo luminescent cell viability reagent (Promega product code G7570). […]
1 if IC50 is below 800 nM. -1 if not; exact matches included in -1.

The following molecules have reported results that may help.
In [3]: df
Out[3]:
                                smiles_repr  answer_label
0  C[C@H](Oc1cc(Nc2ncco2)nc(-c2noc3c2CCC[C@@]32CCCc3sc(N)c(C#N)c32)n1)[C@@H]1CCCN1C             1
1  C[C@H](Oc1cc(O[C@H]2CN(C)C(C)(C)C2)nc(-c2noc3c2CCC[C@@]32CCCc3sc(N)c(C#N)c32)n1)[C@@H]1CCCN1C            -1
2  C[C@H](Oc1cc(N(C)C)nc(-c2noc3c2CCC[C@@]32CCCc3sc(N)c(C#N)c32)n1)[C@@H]1CCCN1C            -1

Inquiry: Input C[C@H](Oc1cc(OCC2(N(C)C)COC2)nc(-c2onc3c2CCC[C@@]32CCCc3sc(N)c(C#N)c32)n1)[C@@H]1CCCN1C ; condition: IC50 strictly below 800 nM. Does it hold?
Reply text: 1

Inquiry: Also check C[C@H](Oc1cc(Oc2cncnc2)nc(-c2noc3c2CCC[C@@]32CCCc3sc(N)c(C#N)c32)n1)[C@@H]1CCCN1C
Reply text: 1
